Molecular target: T1, EsCas13d, nuclease-dead (Eubacterium siraeum, UniProt B0MS50, R295A;H300A;R849A;H854A)
T1 sequence: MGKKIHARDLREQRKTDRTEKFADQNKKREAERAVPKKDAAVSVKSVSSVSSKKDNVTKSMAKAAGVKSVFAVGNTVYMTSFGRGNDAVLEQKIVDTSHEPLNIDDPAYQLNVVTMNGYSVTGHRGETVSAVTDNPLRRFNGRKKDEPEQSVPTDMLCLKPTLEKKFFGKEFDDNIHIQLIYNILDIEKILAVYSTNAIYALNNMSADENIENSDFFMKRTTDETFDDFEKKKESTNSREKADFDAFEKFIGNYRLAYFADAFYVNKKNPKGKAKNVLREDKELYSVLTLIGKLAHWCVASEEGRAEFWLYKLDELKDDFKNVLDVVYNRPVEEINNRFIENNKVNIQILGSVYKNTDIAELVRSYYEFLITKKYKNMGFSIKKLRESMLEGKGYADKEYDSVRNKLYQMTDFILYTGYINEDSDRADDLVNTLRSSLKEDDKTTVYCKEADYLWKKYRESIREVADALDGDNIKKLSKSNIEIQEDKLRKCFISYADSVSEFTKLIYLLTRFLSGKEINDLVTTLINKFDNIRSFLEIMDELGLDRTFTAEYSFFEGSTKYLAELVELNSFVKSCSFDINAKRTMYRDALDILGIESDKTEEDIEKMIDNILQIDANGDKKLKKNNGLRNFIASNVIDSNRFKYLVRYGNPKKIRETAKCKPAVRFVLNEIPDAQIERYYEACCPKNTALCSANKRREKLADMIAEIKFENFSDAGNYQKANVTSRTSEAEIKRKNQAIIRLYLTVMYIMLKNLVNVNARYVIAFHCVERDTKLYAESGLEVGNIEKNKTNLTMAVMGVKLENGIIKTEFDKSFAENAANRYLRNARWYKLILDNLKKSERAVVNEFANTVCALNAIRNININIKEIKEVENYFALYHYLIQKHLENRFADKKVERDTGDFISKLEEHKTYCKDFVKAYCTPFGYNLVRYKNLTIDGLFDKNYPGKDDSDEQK
Assay: crRNA (strand 1, pre-loaded); Mg2+; 40 mM Tris-HCl pH 7.5, 150 mM NaCl, 6 mM MgCl2, 1 mM DTT, 0.1% Tween-20, 0.2 mg/ml BSA; 25 C; 10 min per concentration, then washed
Conditions: tags: His6-TwinStrep-SUMO cleaved; N-terminal SNAP kept (SNAP-Surface 488); label: 3' end held by stalled T7 RNA polymerase
I'd appreciate it if you could supply Kd values for the items below.
// return numeric value only (unit: nM, not printed)

input: Requested read-out: Kd. Entry: target 1 A1U,U3G (mixed) RNA 1: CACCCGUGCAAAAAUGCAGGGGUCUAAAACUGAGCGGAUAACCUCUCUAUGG RNA 2: GGGAAUGGAUCCACAUCUACGAAUUCGUACCAUAGAGAGGUUAUCCGCGCUCCGAGAUCGGAAGAGCACACGU
output: 8.1

input: Param item: target 1 C6G,U10A (mixed) RNA 1: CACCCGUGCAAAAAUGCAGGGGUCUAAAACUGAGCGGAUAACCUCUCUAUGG RNA 2: GGGAAUGGAUCCACAUCUACGAAUUCGUACCAUAGAGAGGUAAUCGGCUCACCGAGAUCGGAAGAGCACACGU
output: 8.6

input: Further, for target 1 MT 5'PFS UAA 3'PFS UUG (mixed) RNA 1: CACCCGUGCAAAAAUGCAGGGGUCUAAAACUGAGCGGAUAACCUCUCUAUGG RNA 2: GGGAAUGGAUCCACAUCUACGAAUUCUAACCAUAGAGAGGUUAUCCGCUCAUUGAGAUCGGAAGAGCACACGU ?
output: 16.8

input: Next record, please: target 1 MT 5'PFS GUU 3'PFS ACA (mixed) RNA 1: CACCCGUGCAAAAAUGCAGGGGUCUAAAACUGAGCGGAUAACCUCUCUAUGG RNA 2: GGGAAUGGAUCCACAUCUACGAAUUCGUUCCAUAGAGAGGUUAUCCGCUCAACAAGAUCGGAAGAGCACACGU
output: 26.5
